B1: ZNF449 (parent)
chain: QLTGHQRIHSGEEPHKCPECGKRF

Variants of: B1
Assay: protein stability index of a GFP-peptide fusion (GPS, HEK-293T) (PSI 1-6); higher = more stable;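 note: lentivirally expressed fusions sorted by FACS into six bins by GFP to DsRed ratio, PSI derived from sequencing read proportions per bin multiplied by bin number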
Conditions: c terminus: a fixed tail appended
protein stability index reference
API doc: respond with a numeric literal and nothing else, no unit.

Illustrative cases are given below, each with its answer.
QUERY: Hello, please tell me recorded protein stability index for this one: `E12Y`
RESULT: 3.41

QUERY: Please give the documented protein stability index of `H15C`
RESULT: 5.22

QUERY: Give protein stability index for `Q1K`
RESULT: 3.61

QUERY: State its protein stability index: `R7V`
RESULT: 3.78

Now consider the entry below.
QUERY: Consider the variant `L2W` . State its measured protein stability index.
RESULT: 4.53
